target: T1, recombinant purified FRα (ECL assay calibrator) (human, UniProt P15328 25-234); experiment: ECL sandwich, FRα calibrator; capture 28H12.G9; binder = detection Ab
T1 construct: Calibrator of the ECL sandwich assays; also called FRα calibrator; FRα standard
T1 sequence (P15328 25-234 limits assumed): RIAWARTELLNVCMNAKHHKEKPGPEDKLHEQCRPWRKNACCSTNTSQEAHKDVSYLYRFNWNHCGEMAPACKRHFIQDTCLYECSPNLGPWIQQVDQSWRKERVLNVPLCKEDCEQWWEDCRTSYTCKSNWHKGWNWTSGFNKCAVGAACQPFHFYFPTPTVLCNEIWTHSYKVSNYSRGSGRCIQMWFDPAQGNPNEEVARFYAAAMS

- Binder: "Monoclonal antibody 24H8.F3 (antibody, mouse IgG1, V domains shown, Murine IgG1 kappa from hybridoma; also called ATCC PTA-123097) VH: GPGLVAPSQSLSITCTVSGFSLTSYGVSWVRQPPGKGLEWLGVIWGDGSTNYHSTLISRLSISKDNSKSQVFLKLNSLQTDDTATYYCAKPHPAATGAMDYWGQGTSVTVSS VL: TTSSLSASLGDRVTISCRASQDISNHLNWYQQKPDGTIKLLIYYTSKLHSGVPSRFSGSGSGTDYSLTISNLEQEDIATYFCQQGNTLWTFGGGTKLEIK"
  Specific signal at 500 pg/mL: 85
- Binder: "Monoclonal antibody 1D2.D8.G10 (antibody, mouse IgG1, V domains shown, Murine IgG1 kappa from hybridoma; also called 1D2.D8.G0; ATCC PTA-123098) VH: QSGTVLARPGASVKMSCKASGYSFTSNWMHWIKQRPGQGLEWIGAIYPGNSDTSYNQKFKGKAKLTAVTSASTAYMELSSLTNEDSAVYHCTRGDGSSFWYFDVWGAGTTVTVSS VL: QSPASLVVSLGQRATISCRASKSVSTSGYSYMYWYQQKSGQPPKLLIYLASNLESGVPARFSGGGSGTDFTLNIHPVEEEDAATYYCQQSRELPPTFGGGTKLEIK"
  Specific signal at 500 pg/mL: 78
- Binder: "Monoclonal antibody 19D4.B7 (antibody, mouse IgG2a, V domains shown, SULFO-TAG conjugated when used as detection antibody in the ECL assay; also called ATCC PTA-11884) VH: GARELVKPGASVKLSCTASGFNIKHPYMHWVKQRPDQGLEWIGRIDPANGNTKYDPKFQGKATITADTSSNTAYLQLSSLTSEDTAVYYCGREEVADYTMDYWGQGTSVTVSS VL: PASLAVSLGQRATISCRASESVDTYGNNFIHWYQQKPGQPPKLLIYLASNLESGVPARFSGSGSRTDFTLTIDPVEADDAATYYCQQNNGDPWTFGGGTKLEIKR"
  Specific signal at 500 pg/mL: 1220
- Binder: "Monoclonal antibody 1C6.E12.G8 (antibody, mouse IgG1, V domains shown, Murine IgG1 kappa from hybridoma; also called ATCC PTA-123091) VH: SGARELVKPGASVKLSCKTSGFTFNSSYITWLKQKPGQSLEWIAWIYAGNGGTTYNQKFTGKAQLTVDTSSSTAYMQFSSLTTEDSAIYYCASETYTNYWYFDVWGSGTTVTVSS VL: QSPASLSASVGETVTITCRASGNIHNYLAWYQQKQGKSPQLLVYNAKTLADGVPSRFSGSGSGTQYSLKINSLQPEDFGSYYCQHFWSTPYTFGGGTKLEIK"
  Specific signal at 500 pg/mL: 92
- Binder: "Monoclonal antibody 24H8.D3 (antibody, mouse IgG1, V domains shown, Biotin-conjugated when used as capture antibody in the ECL assay; also called ATCC PTA-123090) VH: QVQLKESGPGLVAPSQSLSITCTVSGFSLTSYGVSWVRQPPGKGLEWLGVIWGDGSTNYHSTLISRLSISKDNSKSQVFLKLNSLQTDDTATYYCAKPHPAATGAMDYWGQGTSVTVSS VL: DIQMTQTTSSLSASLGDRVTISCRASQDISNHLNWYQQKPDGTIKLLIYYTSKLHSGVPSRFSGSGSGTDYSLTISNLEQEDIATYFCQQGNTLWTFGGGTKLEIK"
  Specific signal at 500 pg/mL: 97
- Binder: "Monoclonal antibody 26A9.C4 (antibody, mouse IgG1, V domains shown, Murine IgG1 kappa from hybridoma; also called ATCC PTA-123092) VH: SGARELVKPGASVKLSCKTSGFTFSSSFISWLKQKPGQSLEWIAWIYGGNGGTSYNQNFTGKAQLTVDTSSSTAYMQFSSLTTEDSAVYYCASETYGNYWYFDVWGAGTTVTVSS VL: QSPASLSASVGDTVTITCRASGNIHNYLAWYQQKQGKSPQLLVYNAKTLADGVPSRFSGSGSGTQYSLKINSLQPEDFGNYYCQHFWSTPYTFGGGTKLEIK"
  Specific signal at 500 pg/mL: 62

The origin of these recorded values is patent US20180148504A1.
